# ASSAY COMMENT: ATG_E_Box_CIS: Attagene CIS-FACTORIAL HepG2 Assay for human Enhancer Box (E-box) (AID 2282936)
# CONDITIONS USED: HepG2 E-box cis-reporter transcription, actives raise or lower the signal
# Procedure: ATG_CIS is a cell-based, multiplexed-readout assay that uses HepG2, a human liver cell line, with measurements taken at 24 hours after chemical dosing in a 24-well plate.ATG_E_Box_CIS is one of 52 assay component(s) measured or calculated from the ATG_CIS assay. […] This assay endpoint, ATG_E_Box_CIS, was analyzed with bidirectional fitting relative to DMSO as the negative control and baseline of activity. […]
Active and inactive are the calls of the source. The calls were made as follows: active = hit-call score of the fitted dose curve at least 0.9, where 1 is the maximum; inactive = score below 0.9.
Entry note: the call must match one of 1 for active, 0 for inactive

{"columns": ["COMPOUND", "DISCRETE LABEL"],
 "data": [
  ["C=CC(F)(C(F)(F)F)C(F)(F)C(F)(F)F (configuration not stated)", 0]
]}

Query: Identify the outcome logged in this assay for the compound shown: Clc1cnc(Oc2ccc(Oc3ncc(Cl)cc3Cl)cc2)c(Cl)c1
Response: 0

Query: Short answer needed: outcome of this test for CNC(=O)O/N=C/C(C)(C)S(C)(=O)=O ?
Response: 0

Query: Any idea what this test logged for OC(c1ccc(Cl)cc1)(c1ccc(Cl)cc1)c1cccnc1 ?
Response: 0

Query: What was the test verdict on c1cc[c]([Sb]([c]2ccccc2)[c]2ccccc2)cc1 ?
Response: 0

Query: Fill in: this test's call for CCCCS(=O)(=O)Cl is ___
Response: 0

Query: Lab log entry: CCCCN(CCCC)C(=S)S — outcome as called in the assay?
Response: 1

Query: Dear colleague, could you share the recorded outcome for CC1CC(=O)O1 (configuration not stated) when you have a moment?
Response: 0

Query: Lab log entry: CCOC(=O)C(SP(=S)(OC)OC)c1ccccc1 (configuration not stated) — outcome as called in the assay?
Response: 0

Query: Fill in: this test's call for CC(c1ccccc1)(c1ccc(O)cc1)c1ccc(O)cc1 is ___
Response: 1

Query: Answer briefly: the call reported for CC(C)(c1ccccc1)c1cc(-n2nc3ccccc3n2)c(O)c(C(C)(C)c2ccccc2)c1 in this assay.
Response: 0

Query: Answer briefly: the call reported for COC(F)(C(F)(F)C(F)(F)F)C(F)(C(F)(F)F)C(F)(F)F (configuration not stated) in this assay.
Response: 0

Query: Any idea what this test logged for CC(C)(C1CCC(O)CC1)C1CCC(O)CC1 (configuration not stated) ?
Response: 0

* * *

# Read-out: E-selectin (Homo sapiens)
# ASSAY COMMENT: BSK_3C_Eselectin: BioMAP Diversity Plus: 3C Assay for Eselectin Biomarker Activity (AID 2283015);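 as to outcome: cell surface E-selectin protein quantified by ELISA 24 h after dosing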
# CONDITIONS USED: primary human endothelial cells (HUVEC); actives raise or lower the signal
Calls of active or inactive are those of the source. Rule for the calls: active = hit-call score of the fitted dose curve at least 0.9, where 1 is the maximum; inactive = score below 0.9.
Respond using exactly one of the listed classes: True = active, False = inactive

Query: Per the records of this test, what outcome belongs to CCOC(=O)CC(=O)CCl ?
Response: True

Query: What outcome does the record of this test show for Clc1cccc(Cl)c1 ?
Response: False

Query: State the result this test recorded for CCCCCCCCCCCCN(C)C .
Response: False

Query: Status in this test for O=[N+]([O-])c1cccc2ccccc12 ?
Response: False

* * *

# Read-out: 3-Hydroxy-3-Methylglutaryl-CoA Synthase 2 (HMGCS2), HMGCS2 (gene 3158)
# ASSAY COMMENT: LTEA_HepaRG_HMGCS2: Life Technologies and Expression Analysis (LTEA) Assay for 3-Hydroxy-3-Methylglutaryl-CoA Synthase 2 (HMGCS2) using HepaRG (AID 2283504)
# CONDITIONS USED: mRNA level, 48 h; actives raise or lower the signal
# Experimental: LTEA_HepaRG is a cell based, multiplexed-readout assay that uses HepaRG, a human liver cell line, with measurements taken at 48 hours after chemical dosing on a 96-well plate.LTEA_HepaRG_HMGCS2 is one of 102 assay component(s) measured in the LTEA HepaRG cell culture assay. It is a marker of Steatosis.Data from the assay component LTEA_HepaRG_HMGCS2 was analyzed into 1 endpoint. […]
The source made the active and inactive calls. How the source made its calls: active means hit-call score of the fitted dose curve at least 0.9, where 1 is the maximum; inactive means score below 0.9.
Select the correct class. Options are active, inactive and nothing else.

{"columns": ["SMILES ENTRY", "DISCRETE LABEL"],
 "data": [
  ["Oc1c(Cl)cc(Cl)cc1Cl", "inactive"],
  ["O=C(N[C@H]1CN2CCC1CC2)c1ccc2c(c1)OCCO2", "inactive"],
  ["N#Cc1cccnc1", "inactive"],
  ["Cc1cc(C)cc(C)c1", "inactive"],
  ["Clc1cccc(Cl)c1", "inactive"]
]}

Query: Which outcome was assigned to CC(C)O.CC(C)O.OCCN(CCO)CCO.OCCN(CCO)CCO.[Ti] in this test?
Response: inactive

Query: Identify the outcome logged in this assay for the compound shown: CCCCCCCCCCCCc1cccc(S(=O)(=O)O)c1
Response: active

Values compiled from PubChem BioAssay (EPA / NIEHS).
